Property: Tm, first melting point (Tm1); scope: individual molecules
PROTOCOL DESCRIPTION: Thermostability (Tm, Tonset, Tagg) by Nanotemper DSF
Assay type: physicochemical
ASSAY CONDITIONS: Replicate 2; in °C (unit assumed)

MOLECULE | Tm, first melting point (Tm1)
SDAB22110-4-3-E05: anti-Fel d1 VHH clone, SEQ ID NO: 55 (protein) VHH: QVQLVESGGGLVQPGGSLRLSCVGSGFTFSQYAMRWYRQVPGKARELVAAISRSGDFMYYADSVKGRFTISRDNVKSAVILQMNSLKPEDTAVYYCYGQATISDTLWGQGTQVTVSS | 46.64
SDAB22110-3-2-H08: anti-Fel d1 VHH clone, SEQ ID NO: 53 (protein) VHH: QVQLVESGGGLVQPGGSLRLSCAASGFTFSRKGMSWYRQVPGKEREWVARIYSTGEKTDYADSVKGRFTISRDNAKNMVYLDMNSLKPEDTAVYYCKAWGYEYWNQGTQVTVSS | 47.53
SDAB22110-4-3-H02: anti-Fel d1 VHH clone, SEQ ID NO: 57 (protein) VHH: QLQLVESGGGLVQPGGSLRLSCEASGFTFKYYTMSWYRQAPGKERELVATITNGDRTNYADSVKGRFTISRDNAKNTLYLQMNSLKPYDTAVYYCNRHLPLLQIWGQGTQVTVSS | 58.57
SDAB22110-3-1-D9-1: anti-Fel d1 VHH clone, SEQ ID NO: 52 (protein) VHH: AVQLVESGGGLVQPGGSLRLSCIISGFTSVSYSIVWFRQAPGKGREGVSCIGSSGGSTDYIDSVKGRFTISRDSAKNTVYLQMDCLKPEDTAVYYCAALRDVYRLCVIDYMNNDYWGQGTQVTVSS | 41.25
SDAB22110-4-3-B02: anti-Fel d1 VHH clone, SEQ ID NO: 54 (protein) VHH: QVQLVESGGGLVQPGGSLRLSCVASGFTFSFYTMEWYRQAAGKQRELVAGLTASGTTHYADSAKGRFTISRDNAWNTVFLQMNGLKPEDTAVYYCNAYSGYRDYWGQGTQVTVSL | 42.34
SDAB22110-1-1-E4: anti-Fel d1 VHH clone, SEQ ID NO: 51 (protein) VHH: QLQLVESGGGLVQPGGSLRLSCTASGFTFSTAGTSWYRQSPGKARKLVAELSRIGGIANYADSVKGRFTISRDNTRNTVYLQMNSLKPEDTAVYYCKVVTNRNYGFTYWGQGTQVTVSS | 50.66
SDAB22110-1-1-B9-1: anti-Fel d1 VHH clone, SEQ ID NO: 50 (protein) VHH: DVQLVESGGGWVQPGGSLRLSCAASGFTFTSYALSWVRQAPGKGLEWVSLADARGTSTTYADSVKGRFTISKDNPRNTLYLLMNSLKPEDTAVYYCTKGFDGNWYPDYDYWGQGTQVTVSS | 54.10
DAB22110-1-1-C3 (protein) VHH: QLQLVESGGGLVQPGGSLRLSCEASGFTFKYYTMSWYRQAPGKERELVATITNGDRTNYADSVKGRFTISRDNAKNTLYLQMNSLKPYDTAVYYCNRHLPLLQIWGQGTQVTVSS | 66.51
